From various publications: IC50 for ABHD6 (Mus musculus, UniProt Q8R2Y0).

1. CS(=O)(=O)N1CCC2(CC1)CN(c1cc(C(F)(F)F)ccc1CN1CCN(C(=O)OC(C(F)(F)F)C(F)(F)F)CC1)C2 = > 1000 nM
2. CC(C)[C@H]1NC(=O)N(OC(=O)N2CCN(c3cccc(C(=O)N4CCOCC4)c3Cl)CC2)C1=O = 100 to 1000 nM
3. O=C(ON1C(=O)N[C@@H](Cc2ccccc2)C1=O)N1CCN(c2cccc(C(=O)N3CCCCC3)c2Cl)CC1 = 100 to 1000 nM

Which measured IC50 value corresponds to `O=C(OC(C(F)(F)F)C(F)(F)F)N1CCC2(CCN(Cc3ccc(Cl)cc3N3CCCCC3)CC2)C1` ?
> 1000 nM

Which measured IC50 value corresponds to `CN1CCC2(CCN(c3cc(C(F)(F)F)ccc3CN3CCN(C(=O)OC(C(F)(F)F)C(F)(F)F)CC3)CC2)C1` ?
> 1000 nM

Which measured IC50 value corresponds to `CS(=O)(=O)N1CCC2(CCN(c3cc(Cl)ccc3CN3CCN(C(=O)OC(C(F)(F)F)C(F)(F)F)CC3)C2)CC1` ?
> 1000 nM

Which measured IC50 value corresponds to `CC(=O)N1CCCc2cccc(CN3CCC4(CC3)CCN(C(=O)OC(C(F)(F)F)C(F)(F)F)C4)c21` ?
> 1000 nM

----------
From various publications: pIC50 for ABHD6 (Mus musculus).
pIC50: −log10 of the molar value.

Which measured pIC50 value corresponds to `O=C(OC(C(F)(F)F)C(F)(F)F)N1CC2(CCN(Cc3ccc(C(F)(F)F)cc3N3CCOCC3)CC2)C1` ?
> 7.00

Which measured pIC50 value corresponds to CS(=O)(=O)N1CC2CN(c3cc(C(F)(F)F)ccc3CN3CCN(C(=O)OC(C(F)(F)F)C(F)(F)F)CC3)CC2C1 (stereo not shown) ?
< 6.00

Which measured pIC50 value corresponds to `CCN1CCC2(CCN(c3cc(C(F)(F)F)ccc3CN3CCN(C(=O)OC(C(F)(F)F)C(F)(F)F)CC3)CC2)C1` ?
< 6.00

Which measured pIC50 value corresponds to `O=C(ON1C(=O)N[C@@H](Cc2ccc(C(F)(F)F)cc2)C1=O)N1CCN(c2cccc(C(=O)N3CCCCC3)c2Cl)CC1` ?
> 7.00

Which measured pIC50 value corresponds to `CCN1CCCc2cccc(CN3CC4(CCN(C(=O)OC(C(F)(F)F)C(F)(F)F)CC4)C3)c21` ?
6.00 to 7.00

Which measured pIC50 value corresponds to `O=C(OC(C(F)(F)F)C(F)(F)F)N1CCC2(CC1)CN(Cc1c(N3CCCCC3)cccc1C(F)(F)F)C2` ?
6.00 to 7.00

Which measured pIC50 value corresponds to `O=C(OC(C(F)(F)F)C(F)(F)F)N1CCC2(CC1)CN(Cc1c(Cl)cccc1N1CCCCC1)C2` ?
> 7.00
